# target desc: endogenous cellular BACE2 (human TMEM27 cleavage) in the Ins 1e rat cell line (Rattus norvegicus, UniProt Q6IE75)
# Construct: endogenous cellular BACE2 in the Ins 1e rat cell line; endogenous in cells
# Sequence (Q6IE75 63-514): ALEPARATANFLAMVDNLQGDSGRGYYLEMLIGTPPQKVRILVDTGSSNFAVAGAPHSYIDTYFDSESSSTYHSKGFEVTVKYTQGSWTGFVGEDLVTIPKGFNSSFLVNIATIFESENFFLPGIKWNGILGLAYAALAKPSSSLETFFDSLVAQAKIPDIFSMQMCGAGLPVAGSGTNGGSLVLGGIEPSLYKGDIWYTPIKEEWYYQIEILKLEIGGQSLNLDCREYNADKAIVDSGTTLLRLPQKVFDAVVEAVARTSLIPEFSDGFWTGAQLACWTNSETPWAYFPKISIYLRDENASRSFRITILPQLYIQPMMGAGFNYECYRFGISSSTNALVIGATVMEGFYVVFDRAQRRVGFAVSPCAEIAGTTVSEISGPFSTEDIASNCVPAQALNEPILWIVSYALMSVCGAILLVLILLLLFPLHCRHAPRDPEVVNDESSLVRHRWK
# run description: Assay for BACE inhibition by measuring cellular TMEM27 cleavage
# measurement parameters: INS-TMEM27 cells, shed TMEM27 in culture medium by ELISA
Where a name gives a salt, the structure may show the parent alone.
reported endpoint: IC50 (nM)
One number for each entry, in nM.

INSERT INTO assay_data (molecule, output_unit, value_measured) VALUES
  ('C[C@]1(c2cc(NC(=O)c3ccc(C4CC4)cn3)ccc2F)N=C(N)COCC1(F)F [Example 7, formate]', 'nM', 123);

Items follow; give IC50 for each.
1. C[C@]1(c2cc(NC(=O)c3ncc(C(N)=O)cc3F)ccc2F)N=C(N)COCC1(F)F [Example 1, formate]
2. CC[C@]1(c2cc(NC(=O)c3ncoc3C3CC3)ccc2F)N=C(N)COCC1(F)F
3. COCC#Cc1ccc(C(=O)Nc2ccc(F)c([C@@]3(C)N=C(N)COCC3(F)F)c2)nc1 [Example 8, formate]
4. C[C@]1(c2cc(NCC3CC3)ccc2F)N=C(N)COC[C@@H]1F
5. C[C@]1(c2cc(NC(=O)c3ccc(-c4nccs4)cn3)ccc2F)N=C(N)COCC1(F)F [Example 3, formate]
6. C[C@]1(c2cc(NC(=O)c3ccc(C#CC4CC4)cn3)ccc2F)N=C(N)COCC1(F)F [Example 6, formate]
7. CSc1cnc(C(=O)Nc2ccc(F)c([C@@]3(C)N=C(N)COCC3(F)F)c2)cn1 [Example 5, formate]

1. 14600
2. 662
3. 837
4. 22.6
5. 5730
6. 311
7. 103

---

# Test system: Aβ40 in Human HEK293 cells stably transfected with human APP wt gene (APP695)
# run description: Cellular Aβ-lowering assay
# Format: cell-based
# measurement parameters: HEK293 cells expressing human APP695, Aβ40 in culture supernatant by ELISA after 18-20 hrs; read-out: Cellular assay Abeta40 IC50
Structures can show the parent of a compound that is named as a salt.
Criterion: IC50 strictly under 30 nM. Met: yes. Not met: no.

Does C[C@]1(c2cc(NC(=O)c3ccc(-c4nccs4)cn3)ccc2F)N=C(N)COCC1(F)F [Example 3, formate] have IC50 strictly under 30 nM? yes

Strictly below 30 nM: is that where IC50 of CC[C@]1(c2cc(NC(=O)c3ncoc3C3CC3)ccc2F)N=C(N)COCC1(F)F sits? no

Is IC50 of COCC#Cc1ccc(C(=O)Nc2ccc(F)c([C@@]3(C)N=C(N)COCC3(F)F)c2)nc1 [Example 8, formate] strictly below 30 nM? no

Please state whether IC50 is below 30 nM for C[C@]1(c2cc(NC(=O)c3ccc(C4CC4)cn3)ccc2F)N=C(N)COCC1(F)F [Example 7, formate] yes

# TODO verify IC50 < 30 nM strictly for this molecule: CSc1cnc(C(=O)Nc2ccc(F)c([C@@]3(C)N=C(N)COCC3(F)F)c2)cn1 [Example 5, formate] yes

Would you kindly verify if IC50 of C[C@]1(c2cc(NC(=O)c3ncc(C(N)=O)cc3F)ccc2F)N=C(N)COCC1(F)F [Example 1, formate] is strictly less than 30 nM? no

Quick check: does C[C@]1(c2cc(NCC3CC3)ccc2F)N=C(N)COC[C@@H]1F have IC50 under 30 nM? yes

I'd appreciate it if you could check whether C[C@]1(c2cc(NC(=O)c3ccc(C#CC4CC4)cn3)ccc2F)N=C(N)COCC1(F)F [Example 6, formate] has IC50 smaller than 30 nM. yes

These measurements were taken from patent US8815841B2.
